# Tested on: HIV-1
# Test Description: HeLa CD4 LTR β-gal HIV-1 attachment assay (Experimental Example 1)
# Assay type: cell-based
# Assay Conditions: Human immunodeficiency virus 1, HeLa, Experiment 1; pretreat 4 h
Observation Type: IC50

Compound | Measurement Target | Meas Value
Cc1c(O)cc(C(C)(C)CCCC(C)C)cc1O [IMG510] | HIV-1 | > 50 µM
COc1cc(-c2ccc(/N=N/c3ccc4c(S(=O)(=O)O)cc(S(=O)(=O)O)c(N)c4c3O)c(OC)c2)ccc1/N=N/c1ccc2c(S(=O)(=O)O)cc(S(=O)(=O)O)c(N)c2c1O [CSB, Chicago Sky Blue, reference compound] | HIV-1 | 1.71 µg/mL
COc1cc(C(C)(C)CCCC(C)C)cc(OC)c1OC [IMG507] | HIV-1 | > 50 µM
